Where do these numbers come from? They come from PubChem BioAssay AID1899.

System: HCV core protein (residues 1-106) dimerization
assay-notes: blockers of core106 self-association – biochemical, TR-FRET, high-throughput, primary screen (AID 1899)
condition-details: TR-FRET GST/Flag-core106 dimerization, 1536-well; at 5 µM
Out of some 300,000 compounds screened, about 1,000 (0.33%) were called active.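 How the source made its calls: active means inhibition above the mean of all tested compounds plus 3 SD, set per screening campaign (cut at about 45% in these data); inactive means the rest.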 Many of the other results were omitted from the sample, so actives are more common in it than they were.
Outcome (select one): active, inactive

Exercise: Hi, do you know how `CCOc1ccccc1NC(=O)Cc1cccs1` came out in this test?
Key: active

Exercise: Call for entry `CN(C)c1ccc(C(=S)N2CCN(C(=S)Nc3ccc(Cl)cc3)CC2)cc1` :
Key: inactive

Exercise: Test call for this compound, please: `CCOc1ccccc1NC(=O)Cn1nnc(C(=O)NCc2cccs2)c1N`
Key: inactive

Exercise: What was the test verdict on `O=C(CN1CCN(S(=O)(=O)/C=C/c2ccccc2)CC1)NC(=O)NCc1ccco1` ?
Key: active

Exercise: # lookup: test call for `Cc1cc(/C=C2\SC(=O)N(C)C2=O)c(C)n1-c1cccc(C(=O)O)c1`
Key: inactive

Exercise: Recorded test outcome, item `CNC(=O)C1CCN(S(=O)(=O)c2c(C)noc2/C=C/c2cccc(C)c2)CC1`
Key: inactive

Exercise: For `O=C(c1ccccc1)N1CCN(C(=O)c2cc3nc(-c4ccccc4)cc(C(F)(F)F)n3n2)CC1` , which call appears in the assay record?
Key: inactive

Exercise: For this compound, state the assay outcome: `Cc1noc(/C=C/c2ccco2)c1S(=O)(=O)N1CCC(C(=O)Nc2ccc(Cl)cn2)CC1`
Key: inactive

Exercise: Look up the recorded call for `COc1ccc(OC)c(NC(=O)Cc2cccs2)c1` in this test.
Key: inactive

Exercise: For `Cc1noc(/C=C/c2ccco2)c1S(=O)(=O)N1CCC(C(=O)N2CCc3ccccc32)CC1` , which call appears in the assay record?
Key: active

Exercise: Hey, what did the test say about `O=C(CN1CCN(S(=O)(=O)/C=C/c2ccccc2)CC1)Nc1ccc(N2CCOCC2)cc1` ?
Key: inactive

Exercise: Can you look up the reported call for `COc1ccccc1N1CCN(CC(=O)NC(=O)NCc2ccco2)CC1` for me?
Key: inactive

Exercise: // return assay outcome for `N#Cc1cccc(NC(=O)CN2CCCCCC2)c1`
Key: inactive

Exercise: Recorded test outcome, item C=CCN1C=C2C(=O)C(C)(OC(=O)CCc3ccccc3)C(=O)C=C2C=C1c1ccc(C#N)cc1 (stereo not given)
Key: active

Exercise: Each compound tested received a call. Report the one for CC1(OC(=O)CCc2ccccc2)C(=O)C=C2C=C(c3ccc(C#N)cc3)N(CCc3ccccn3)C=C2C1=O (stereo not given) .
Key: inactive

###

Test system: HCV core protein (residues 1-106) dimerization
assay-notes: blockers of core106 self-association – biochemical, TR-FRET, high-throughput, primary screen (AID 1899)
condition-details: TR-FRET GST/Flag-core106 dimerization, 1536-well; at 5 µM; stronger effect = higher value
The campaign covered roughly 300,000 compounds. About 1,000 (0.33%) were called active. For the sample, actives were picked, then their nearest neighbours and some compounds at random.
So I've got a bunch of molecules here, and I need their inhibition values.
Give your result in % as a bare value.

Exercise: Need inhibition of `O=C(O)Cc1sc(-c2ccccc2)nc1-c1cccs1` , thanks.
Key: 5.73

Exercise: Given `CC1=C(/C=C/C(C)=C/C=C/C(C)=C/C=C/C=C(C)/C=C/C=C(C)/C=C/C2=C(C)CCCC2(C)C)C(C)(C)CCC1` , state its recorded inhibition.
Key: 69.5

Exercise: // lookup inhibition for CCOC(=O)C1(CC2CCCCO2)CCN(Cc2nc(-c3cccs3)oc2C)CC1 (stereo not given)
Key: -1.21

Exercise: inhibition lookup needed for `CN(CC(=O)Nc1cccc2c1CCCC2)S(=O)(=O)c1ccc(Cl)cc1` , thanks.
Key: 1.71

Exercise: What inhibition value was documented for this molecule, `COC(=O)c1cc(-c2cccs2)nc2ccccc12` ?
Key: 3.48

###

Tested on: HCV core protein (residues 1-106) dimerization
assay-notes: blockers of core106 self-association – biochemical, TR-FRET, high-throughput, primary screen (AID 1899)
condition-details: TR-FRET GST/Flag-core106 dimerization, 1536-well; at 5 µM
Screen size: about 300,000 compounds; about 1,000 (0.33%) were called active.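 Rule for the calls: active = inhibition above the mean of all tested compounds plus 3 SD, set per screening campaign (cut at about 45% in these data); inactive = the rest.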 What follows is part of a selection rich in actives, with near analogues and random picks from the rest.
Hi there, use one of these labels in your reply, thanks! True for active, False for inactive

Exercise: What classification did CC(C)C(C)(C#N)NC(=O)CSc1nc2scc(-c3ccccc3)c2c(=O)[nH]1 (stereo unspecified) end up with in this test?
Key: False

Exercise: Tell me the recorded outcome of this test for `Cc1ccc(-c2cc(C(=O)N/N=C/C=C/c3ccco3)c3ccccc3n2)cc1C` .
Key: True

Exercise: Record lookup: outcome of this test for `O=C(N/N=C/C=C/c1ccco1)c1cccs1` ?
Key: False

Exercise: How did this test come out for `COc1ccc(/C=N/NC(=O)c2cc(-c3cccc(C)c3)nc3ccccc23)cc1O` ?
Key: False

Exercise: Hi, do you know how `Cn1cncc1COC(=O)c1ccc(Cl)cc1` came out in this test?
Key: False

Exercise: Record lookup: outcome of this test for `Nc1c(-c2ccc(F)cc2)cnc2ncnn12` ?
Key: False

###

Could you please report measured inhibition for the items listed next?
Tested on: HCV core protein (residues 1-106) dimerization
assay-notes: blockers of core106 self-association – biochemical, TR-FRET, high-throughput, primary screen (AID 1899)
condition-details: TR-FRET GST/Flag-core106 dimerization, 1536-well; at 5 µM; stronger effect = higher value
Out of some 300,000 compounds screened, about 1,000 (0.33%) were called active. This is one part of a sample in which actives are shown more often than they occur.
Give just the number in %; leave the unit off.

Exercise: // map `COc1ccc(S(=O)(=O)N2CCOC23CCN(S(=O)(=O)c2ccc([N+](=O)[O-])cc2)CC3)cc1` to recorded inhibition (system: HCV core protein (residues 1-106) dimerization)
Key: 7.35

Exercise: HCV core protein (residues 1-106) dimerization / inhibition / COc1cccc(/C=C2\Sc3ccc(C(=O)NCC4CCCO4)cc3N(C)C2=O)c1 (stereo unspecified) : value?
Key: 4.72

Exercise: Enter reported inhibition observed with HCV core protein (residues 1-106) dimerization for `CSC1=N/C(=C\C=C\c2cccs2)C(=O)S1`
Key: 60.2

Exercise: What inhibition appears in the records for this compound with HCV core protein (residues 1-106) dimerization? CC(=O)c1ccc(S(=O)(=O)NC2CC(=O)N(c3ccc4c(c3)OCCO4)C2)cc1 (stereo unspecified)
Key: 0.9

Exercise: Recall the recorded inhibition for `Cc1cc(C)cc(NC(=O)NCc2ccccn2)c1` with HCV core protein (residues 1-106) dimerization and state it.
Key: -2.74

Exercise: Give inhibition (HCV core protein (residues 1-106) dimerization) of the following compound: `COCCNC(=O)Nc1ccc2nc(-c3ccco3)c(-c3ccco3)nc2c1`
Key: 83.7

Exercise: inhibition of `COc1ccccc1N(CC(=O)Nc1ccc(C(F)(F)F)cc1)S(C)(=O)=O` on HCV core protein (residues 1-106) dimerization?
Key: -4.98

Exercise: Lab note: need inhibition with HCV core protein (residues 1-106) dimerization for entry `Cc1cccc(C2=N/C(=C/c3cccs3)C(=O)O2)c1` , please look it up.
Key: 2.89

Exercise: # returns recorded inhibition (system: HCV core protein (residues 1-106) dimerization) for `O=C(NCc1ccccn1)c1ccc2nc(-c3ccco3)c(-c3ccco3)nc2c1`
Key: 77.7

Exercise: Return inhibition measured with HCV core protein (residues 1-106) dimerization given this compound: `COc1ccc2oc(=O)c(C(=O)NCc3ccccn3)cc2c1`
Key: -1.18

Exercise: Request body: readout inhibition, system HCV core protein (residues 1-106) dimerization, query `CN1C/C(=C/c2cccs2)C(=O)/C(=C\c2cccs2)C1` . Return the value.
Key: 6.47

###

Tested on: HCV core protein (residues 1-106) dimerization
assay-notes: blockers of core106 self-association – biochemical, TR-FRET, high-throughput, primary screen (AID 1899)
condition-details: TR-FRET GST/Flag-core106 dimerization, 1536-well; at 5 µM; stronger effect = higher value
The campaign covered roughly 300,000 compounds. About 1,000 (0.33%) were called active. Shown is part of a subset that was picked to be rich in actives.
measure: inhibition (%)
Just the number in %, nothing appended.

Exercise: Request: inhibition, test system HCV core protein (residues 1-106) dimerization, entry `CCOC(=O)Cn1c(=O)oc2cc(S(=O)(=O)N(C)Cc3ccco3)ccc21`
Key: -1.55

Exercise: Record lookup: for HCV core protein (residues 1-106) dimerization, what inhibition belongs to `CC(=O)c1c(Nc2ccccc2)sc(C(=O)c2ccccc2)c1C` ?
Key: -11.1

Exercise: Lookup: inhibition / HCV core protein (residues 1-106) dimerization / `Fc1ccc2c(c1)C(c1cccnc1)=NNC(c1cccs1)=N2`
Key: -0.24
